system-under-test: Human plasma kallikrein (Homo sapiens (Human), UniProt P03952)
Sequence (P03952 391-638 limits assumed): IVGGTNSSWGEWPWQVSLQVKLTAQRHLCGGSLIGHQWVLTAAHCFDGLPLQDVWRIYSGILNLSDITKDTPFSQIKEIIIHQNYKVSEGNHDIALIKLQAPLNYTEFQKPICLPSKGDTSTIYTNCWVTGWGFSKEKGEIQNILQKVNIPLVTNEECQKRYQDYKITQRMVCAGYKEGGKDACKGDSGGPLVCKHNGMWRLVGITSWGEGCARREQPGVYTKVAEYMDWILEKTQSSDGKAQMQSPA
Sequence (P03952 20-390 partner limits assumed): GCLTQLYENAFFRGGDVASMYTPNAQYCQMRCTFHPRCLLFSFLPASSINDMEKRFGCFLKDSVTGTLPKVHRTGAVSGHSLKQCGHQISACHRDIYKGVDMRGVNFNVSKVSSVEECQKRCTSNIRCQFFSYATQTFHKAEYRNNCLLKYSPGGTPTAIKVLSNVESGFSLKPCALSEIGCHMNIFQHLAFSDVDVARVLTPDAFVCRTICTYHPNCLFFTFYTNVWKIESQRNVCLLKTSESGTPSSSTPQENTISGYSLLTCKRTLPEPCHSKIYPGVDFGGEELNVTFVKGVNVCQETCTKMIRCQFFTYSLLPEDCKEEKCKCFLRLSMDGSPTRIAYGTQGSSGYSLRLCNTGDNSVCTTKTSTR
test-method-notes: Plasma Kallikrein Assay
conditions: purified Human plasma kallikrein 0.5 nM, substrate Acetyl-K-P-R-AFC, pH 7.4; read-out: PKal IC50
pIC50: −log10 of the molar value.
reported-property: pIC50

Solved cases below.
{"molecule": "C[C@H]1CCN(c2ccc(CNC(=O)c3cncc(N4CC[C@]5(C4)OC(=O)Nc4ccc(Cl)c(F)c45)n3)cn2)C1", "pIC50": 7.71}
{"molecule": "Cc1cnn(Cc2ccc(CNC(=O)c3cnnc(N4CC[C@]5(C4)OC(=O)Nc4ccc(Cl)c(F)c45)c3)cc2)c1", "pIC50": 9.30}
{"molecule": "O=C1Nc2ccc(Cl)c(F)c2[C@]2(CCN(c3cc(C(=O)NCc4ccc(N5CC[C@H](F)C5)nc4)cnn3)C2)O1", "pIC50": 8.52}
{"molecule": "O=C(Cc1ccc(Cn2ccccc2=O)cc1)Nc1cncc(N2CC[C@]3(C2)OC(=O)Nc2ccc(Cl)c(F)c23)c1", "pIC50": 7.72}

[P] O=C1Nc2ccc(Cl)c(F)c2[C@]2(CCN(c3cc(C(=O)NCc4ccc(N5CCC(C(F)(F)F)C5)nc4)cnn3)C2)O1 (stereo in doubt)
[Q] O=C1Nc2ccc(Cl)c(F)c2[C@]2(CCN(c3cc(C(=O)NCc4ccc(N5CCC(F)(F)C5)cc4F)cnn3)C2)O1
INPUT: Please indicate which entry, P or Q , has the lower recorded pIC50 value. # respond with the chosen item's label
OUTPUT: Q
(Q: 7.52, P: 8.12)
